Reference source for all entries: patent US7335723B2

assayed-system: human MCH-1R (Homo sapiens)
Sequence (Q99705 whole entry): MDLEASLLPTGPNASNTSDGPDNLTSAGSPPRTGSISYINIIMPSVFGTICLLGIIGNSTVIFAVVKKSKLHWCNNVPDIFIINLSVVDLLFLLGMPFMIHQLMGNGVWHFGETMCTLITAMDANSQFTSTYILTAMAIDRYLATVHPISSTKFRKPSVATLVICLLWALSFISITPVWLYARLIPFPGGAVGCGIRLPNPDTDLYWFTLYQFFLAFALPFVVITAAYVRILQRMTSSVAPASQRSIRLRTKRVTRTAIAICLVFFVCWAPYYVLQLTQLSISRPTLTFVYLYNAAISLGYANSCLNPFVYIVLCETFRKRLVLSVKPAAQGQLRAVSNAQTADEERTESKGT
pIC50: −log10 of the molar value. Where a SMILES comes first, the peptide text is derived from it. Bridges are numbered along the chain shown (N, C = ends). [ ]: non-standard residue; d: D form. The star is where a group is joined. Pentanoyl(5-guanidino) = NC(N)=NCCCCC(=O)*; dNle = CCCC[C@@H](N)C(=O)O; Ava = NCCCCC(=O)O
recorded-metric: pIC50

[[record]]
compound = "CCCC[C@H]1NC(=O)[C@H](CC(C)C)NC(=O)[C@H](CCSC)NC(=O)[C@@H](NC(=O)CCCCNC(=N)N)CSSC[C@@H](C(N)=O)NC(=O)CCCCNC(=O)CCCCNC(=O)[C@H](Cc2ccc(O)cc2)NC(=O)[C@H](C(C)C)NC(=O)[C@H](CCCNC(=N)N)NC1=O [SEQ. ID. NO. 27] ({Pentanoyl(5-guanidino)}-CML[dNle]RVY[Ava][Ava]C-NH2; disulfide 1-10; C-terminus assumed)"
numeric_readout = 7.55

[[record]]
compound = "CC(C)C[C@@H]1NC(=O)[C@H](C)NC(=O)[C@@H](NC(=O)CCCCNC(=N)N)CSSC[C@@H](C(N)=O)NC(=O)CCCCNC(=O)CCCCNC(=O)[C@H](Cc2ccc(O)cc2)NC(=O)[C@H](C(C)C)NC(=O)[C@H](CCCNC(=N)N)NC(=O)CNC1=O [SEQ. ID. NO. 19] ({Pentanoyl(5-guanidino)}-CALGRVY[Ava][Ava]C-NH2; disulfide 1-10 (inferred); C-terminus assumed)"
numeric_readout = 6.85

